Target: Cbl-b (Homo sapiens (Human))
Sequence (Q13191 40-426): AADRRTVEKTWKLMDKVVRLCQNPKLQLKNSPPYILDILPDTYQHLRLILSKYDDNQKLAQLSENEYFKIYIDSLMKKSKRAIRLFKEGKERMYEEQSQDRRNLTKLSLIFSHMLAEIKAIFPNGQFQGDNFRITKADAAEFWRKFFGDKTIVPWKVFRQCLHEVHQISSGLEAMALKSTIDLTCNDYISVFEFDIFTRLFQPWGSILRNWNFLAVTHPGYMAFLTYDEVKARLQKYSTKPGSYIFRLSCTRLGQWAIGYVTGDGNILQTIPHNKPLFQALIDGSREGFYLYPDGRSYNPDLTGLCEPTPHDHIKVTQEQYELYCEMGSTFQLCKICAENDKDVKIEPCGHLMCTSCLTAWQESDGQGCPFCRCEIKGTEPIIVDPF
Experiment: Cbl-b LCK Ub TR-FRET assay (Cbl-b Lck HTRF)
Format: biochemical
Settings: Cbl-b LCK Ub TR-FRET
pIC50: −log10 of the molar value.
measured.property: pIC50

Check out these entries, answers already filled in.
>>> reading("Cn1cnnc1C1(c2cccc(N3Cc4c(cc(CNC5(C)CCC5)cc4C(F)(F)F)C3=O)c2)CC(F)(F)C1")
7.82
>>> reading("Cn1cnnc1[C@]1(c2cccc(N3Cc4c(cc(CNC5(C)CCC5)cc4C(F)(F)F)C3=O)c2)C[C@]2(CCO2)C1")
7.77

[I] CCO[C@H]1C[C@](c2cccc(N3Cc4c(cc(CNC5(C)CCC5)cc4C(F)(F)F)C3=O)c2)(c2nncn2C)C1
[II] CO[C@H]1C[C@@](c2cc(N[C@H](C)CC#N)cc(N3Cc4c(cc(CNC5(C)CCC5)cc4C(F)(F)F)C3=O)c2)(c2nncn2C)C1 (single isomer, unassigned)
[III] Cn1cnnc1[C@]1(c2cccc(N3Cc4c(cc(CNC5(C)CCC5)cc4C(F)F)C3=O)c2)C[C@H](F)C1
[IV] Cn1cnnc1[C@]1(c2cccc(N3Cc4c(cc(CNC5(C)CCC5)cc4C(F)(F)F)C3=O)c2)C[C@@](C)(O)C1
Order these by pIC50, descending, and give the full ranking. Provide the labels, sequenced as the question asks. III, II, I, IV
(III: 8.01, II: 7.80, I: 7.52, IV: 6.77)
